Values compiled from a protein production outcome set (Wang et al. 2014).

method.description: label from the status in PepcDB records
assay.endpoint: protein production

Below, each entry is followed by its recorded protein production result.
{"residue.codes": "MEIGIIGTGNIGGTLARKLIAAGHQVRVANSKGIHGVQSFADEIGATAVDVYGAVKGADAIILSIPLPALASLPNGFFDDLPETVPLIDTSNYYPGLRDPLIPEIDDGMTESVWVSQQLSHPVIKAFNNILAWSLAELGTPKGSASRLAIAVAGDNATLKQIVMNLVDDTGFDAIDAGSLEESWRQQPSTPAYCCDYDAETMKKGLTAAVRGEAASKRDRLPLEHHHHHH", "val": "failed"}
{"residue.codes": "MRMNILLAFKAEPDAGMLAEKEWQAAQGNSGPDVSLLRSLLGADEQAAAALLLAQRKNGTSMSLTALSMGDERALHWLRYLMALGFEDAVLLETAADLRFAPEFVARHIAEWQYQNPLELIITGCQSSEGQNGQTPFLLAEMLGWPCFTQVERFTLDAPFITLEQRTENGLRCCRVRLPAVIAVRQCGEVALPVPGMRQRMAAGKAEIIRKTVAAEMPAMQCLQLARAEQRRGATLIDGQTVAEKAQKLWQYYLCQRMQP", "val": "failed"}
{"residue.codes": "MKQFGGPVLFLDRSDINTDEIIPAKYLTEITKEDLKPYILEDLKLPGFDPKGEKTKTARVVVSRANFGCGSSREHAPWVFEVNGITAVIAESFARIFRQNMFNCGMAAIELSADTIEGLFTYAGCADAAISIDVAGQTLTISGGGTSETHSFDISPFDKALVLAGGWVDYADSKY", "val": "failed"}
{"residue.codes": "SDDDNPTVDPANIDYTPENASSWHNYMRNVAALLKTDATNLYNAWNSSYKGGESYASLFKAHSGSPYASALSCVEEIVDKCAEIANEVGTAKIGDPYNLYKAGNTEEALYAVESWYSWHSRDDYTNNIYSIRNAYYGSLDGNINANSLSTVIAGANSSLDTKIKNAIQKAAKAIQDIPQPFRNHIPSNETVAAMDACAELESILKNDLKSYIANNSNNINTDAVLNPVVTQYVDAVVVPTYKSLKEKNDALYNAVIVLADNPSNSAFETACDAWITAREPWEKSEAFLFGPVDEMGLDPNMDSWPLDQNAIVQILNSQSWSDLEWSEGDDEAAVESAQNVRGFHTLEFLLYKNGEPRKVQ", "val": "not failed"}
{"residue.codes": "MNVVIVRYGEIGTKSRQTRSWFEKILMNNIREALVTEEVPYKEIFSRHGRIIVKTNSPKEAANVLVRVFGIVSISPAMEVEASLEKINRTALLMFRKKAKEVGKERPKFRVTARRITKEFPLDSLEIQAKVGEYILNNENCEVDLKNYDIEIGIEIMQGKAYIYTEKIKGWGGLPIGTEGRMIGILHDELSALAIFLMMKRGVEVIPVYIGKDDKNLEKVRSLWNLLKRYSYGSKGFLVVAESFDRVLKLIRDFGVKGVIKGLRPNDLNSEVSEITEDFKMFPVPVYYPLIALPEEYIKSVKERLGL", "val": "not failed"}
{"residue.codes": "MTYCVAMRLDAGLVFLSDSRTNAGVDAISTFRKMTVFEREGDRVMVLLTAGNLAISQAVRQVLTEARDKARSLWTARDMFEATTIVGEAVREVYDRDAAALAKAKIDFNVSIIFGGQIGGERPRLFNVYAAGNFIEATPENCYFQIGEAKYGKPIIDRLIRASLPLDEAAKCALISMDSTLKSNISVGLPLDLLVYEADSLRVTRFVAIDEENPYFAMIRSTWGKRLRQVFAEIEDPDWQTGTHPAHPLRRAGHPTAEVEPVRIAPPAAPPAAEGAAVPQRAPGPAFGQGAAAQRVAGGSHEPH", "val": "failed"}
{"residue.codes": "NHSHSLAVIGSRNATQYTSQSLNYLFPSFRQLNMAIVSGLARGADSVAHQTALKYLLPTIGVLGFGHCYHYPKATLNLRTKVERNGLVISEYPPFSPISKHKFPERNRLISGLSRGVLITEAEERSGSQITIDCALEQNRNVYVLPGSMFNKMTKGNLRRINEGAQVVIDESSILYDYLF", "val": "failed"}
{"residue.codes": "MTVVSVDKDVEALSFSIVAEFDADVKRVWAIWEDPRQLERWWGPPTWPATFETHEFTVGGKAAYYMTGPDGTKARGWWQFTTIEAPDHLEFDDGFADEHGAPVDELGVTHATVKLEPLENRTRMTIISTFESEEQMQKMAEMGMEEGMREAIEQIDAVLSEPANALEHHHHHH", "val": "not failed"}
{"residue.codes": "MDHYLRWRKRQKLLADFGEFALSNDNLADILTEACRLVGNALGTQRANVLEIEPSKRSLFVRAGVGLDDGIVGKLRLPMREIASERFSPDGSPLDIIHDVHTEPQYDLAAFMEVAGVVALVNVPILLPGRTLYGLLQVESSEPREFSQDDVEFLRTYSTILGPVIDRLNKVRALRDAEERFRLIVEAAR", "val": "not failed"}
{"residue.codes": "MAEARPDSLTRSRAAKPAGEGAAFSPLYRQIKELLVQSLDRGEWKPGELIPSEIDLAARFQVSQGTVRKAVDELAAEHLLLRRQGKGTFVATHHEARVRYRFLRLAPDEEGEGGRAESRILECRRLRAPAEIARALELRAGETVVTIRRQLSMNHMPTVIDDLWLPGTHFRGLTLELLTASKAPLYGLFESEFGVSMVRADEKLRAVAASPEIAPLLGVEPGRPLLQVDRISYTYGDRPMEVRRGLYLTDHYHYRNSLN", "val": "not failed"}

Next:
[ask] Would you kindly share the measured protein production for MSQPPLLSGPGGRLLGAALLIGLLAGCGSVSTGNAGSGTVGTSTTSRADVMTFQPSSLPVSYVGETYNVQVGVTGGVGPYGYRLTAGTLPPGLKFAGGALSGTPTKAGSYSFAIQATDANLSTRVQEYTMNVDALPPLALKPTLPPGEIRGETRIPVTIQAPRAVRAARLSWDLGKDVQVTRVQPADAGSVVFWQQRGSVLTVDLGFRTVPRPDARIALITVKPAKAVTLKADALGYEARDGSGKMLVDKKRPGSEPVKPAEQPGDPKVDPKAADQKATDQKATDPKTVDPKTVTPADTVEGGPLPSPALPTPSLPPTLPPVTTPPANTPPVPTPTPPANQPAPAPAPQPAPAPQPTPPSGTGGALEHHHHHH ?
[reply] not failed
